As shown below, each of these compounds has a reported inhibition value.
# measurement.description: small molecules binding CAG repeat RNA – biochemical, fluorescence, confirmation (AID 652065);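 further: loss of TO-PRO-1 fluorescence as compound displaces dye from 1x1 AA loop RNA; 0% = DMSO only wells and 100% = 100 µM mitoxantrone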
# setup.conditions: r(CAG) RNA repeat, TO-PRO-1 dye displacement fluorescence; at 3 µM; active compounds read high
Among all 4,300 compounds or so, about 3,000 (70%) were called active. The set was probably picked from earlier hits. These entries were drawn from the full list.
Note: unit % is implicit; provide only the numeric part.

# count of solved cases: 3
Qu. What does the record list as inhibition for "COc1cc(OC)c(S(=O)(=O)Nc2ccccc2C(=O)O)cc1S(=O)(=O)Nc1ccccc1C(=O)O" ?
Ans. 39.9

Qu. What does the record list as inhibition for "CCOc1ccc(-n2c(SCC(=O)Nc3cc(C(=O)O)ccc3Cl)nc3ccccc3c2=O)cc1" ?
Ans. 52.9

Qu. What does the record list as inhibition for "Cc1cc(NS(=O)(=O)c2ccc(NC(=O)CSc3nnc(SCc4ccc(F)cc4)s3)cc2)nc(C)n1" ?
Ans. 45

More entries:
Qu. What does the record list as inhibition for "COc1ccc(NS(=O)(=O)c2cc(C(=O)Nc3ccccc3C(=O)O)ccc2C)cc1" ?
Ans. 52

Qu. What does the record list as inhibition for "O=C(COC(=O)c1ccc(NS(=O)(=O)c2cccs2)cc1O)Nc1ccc(F)cc1" ?
Ans. 23.1

Qu. What does the record list as inhibition for "CCCCC[C@@H]1C=C(C(=O)O)[C@H](c2ccc(C#N)cc2)N1S(=O)(=O)c1ccc(C)cc1" ?
Ans. 55.7

Qu. What does the record list as inhibition for "Cc1ccc(S(=O)(=O)N2[C@@H](c3ccc(Br)cc3)C(C(=O)O)=C[C@H]2CC2CCCC2)cc1" ?
Ans. 72.6

Qu. What does the record list as inhibition for "Cc1ccc(S(=O)(=O)NCCC(c2ccccc2)c2ccccc2)cc1C(=O)O" ?
Ans. 28

Qu. What does the record list as inhibition for "Cc1cc(NS(=O)(=O)c2ccc(NC(=O)CSc3nnc(-c4ccc(C(C)(C)C)cc4)n3Cc3ccco3)cc2)nc(C)n1" ?
Ans. 23.6

----------
# measurement.description: small molecules binding CAG repeat RNA – biochemical, fluorescence, confirmation (AID 652065);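 further: loss of TO-PRO-1 fluorescence as compound displaces dye from 1x1 AA loop RNA; 0% = DMSO only wells and 100% = 100 µM mitoxantrone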
# setup.conditions: r(CAG) RNA repeat, TO-PRO-1 dye displacement fluorescence; at 3 µM; active compounds read high
Hit rate of the full screen: of about 4,300 compounds, about 3,000 (70%) were called active. So high a share suggests a set chosen from earlier hits. These entries were drawn from the full list.
As shown below, each of these molecules has a reported inhibition value.
Note: unit % is implicit; provide only the numeric part.

# count of solved cases: 5
Qu. What does the record list as inhibition for "CCOc1ccc(-n2c(O)c(/C=N/Nc3nnc(C)c(=O)[nH]3)c3ccccc3c2=O)cc1" ?
Ans. 52.6

Qu. What does the record list as inhibition for "CCSc1nsc(NC(=O)Nc2cccc(C(C)=O)c2)n1" ?
Ans. 26.3

Qu. What does the record list as inhibition for "O=C(CCc1ccccc1Cl)Nc1ccc(S(=O)(=O)Nc2nccs2)cc1" ?
Ans. 39.1

Qu. What does the record list as inhibition for "O=C(Nc1ccc2c(c1)CCC2)c1cccc(S(=O)(=O)Nc2ccccc2Cl)c1" ?
Ans. 40

Qu. What does the record list as inhibition for "O=C(COc1ccc([N+](=O)[O-])cc1)Nc1cccc(C(=O)Nc2ccccc2C(=O)O)c1" ?
Ans. 62.4

More entries:
Qu. What does the record list as inhibition for "CCOc1cc(C)ccc1OCc1nnc(SCC(=O)Nc2cccc(C(=O)O)c2)n1-c1ccccc1" ?
Ans. 41.2

Qu. What does the record list as inhibition for CC1(C(=O)NS(=O)(=O)c2ccc3ccccc3c2)CCN1C(=O)C1(c2ccc(Cl)cc2)CCC1 (stereo not given) ?
Ans. 72

Qu. What does the record list as inhibition for "COc1ccccc1/C=C/C=N/n1c(-c2ccc(Cl)cc2Cl)n[nH]c1=S" ?
Ans. 42.1

Qu. What does the record list as inhibition for "Cc1ccc(-n2ncc3c(Nc4cccc(C(=O)O)c4)ncnc32)cc1" ?
Ans. 23.1

Qu. What does the record list as inhibition for "Cc1ccc(Nc2nc(CSc3nnnn3-c3ccccc3)cc(=O)[nH]2)cc1" ?
Ans. 50.7

----------
# measurement.description: small molecules binding CAG repeat RNA – biochemical, fluorescence, confirmation (AID 652065);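 further: loss of TO-PRO-1 fluorescence as compound displaces dye from 1x1 AA loop RNA; 0% = DMSO only wells and 100% = 100 µM mitoxantrone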
# setup.conditions: r(CAG) RNA repeat, TO-PRO-1 dye displacement fluorescence; at 3 µM
About 3,000 (70%) of roughly 4,300 compounds were called active.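 The calls were made as follows: active = inhibition above a per-plate cutoff, the mean inhibition of sample wells plus 3 SD (cut at about 35% in these data); inactive = the rest.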 The set was probably picked from earlier hits. A selection follows.
Hi there, use one of these labels in your reply, thanks! True (active), False (inactive)

Study these solved cases before continuing.
Qu. Status in this test for "Cc1ccc(NC(=O)CSc2sc3c(O)cc(=O)[nH]c3c2C#N)cc1C" ?
Ans. False

Qu. Status in this test for "N#Cc1ccccc1CN1C(=O)S/C(=C/c2cccn2-c2cccc(C(=O)O)c2)C1=O" ?
Ans. True

Qu. Status in this test for "O=[N+]([O-])c1cc(Cl)cc(/C=N/NC(=S)Nc2cc(S(=O)(=O)N3CCOCC3)ccc2Cl)c1O" ?
Ans. True

More entries:
Qu. Status in this test for "CCOC(=O)c1cc2cc(-c3c(C(=O)OCC)oc4cc(O)cc(O)c4c3=O)ccc2o1" ?
Ans. True

Qu. Status in this test for "CCOc1cc(/C=C(\C#N)c2nc(-c3cccs3)c(NC(C)=O)s2)ccc1O" ?
Ans. True

Qu. Status in this test for "O=S(=O)(Nc1ccc(O)c2ccccc12)c1ccc(OC(F)(F)F)cc1" ?
Ans. True

Qu. Status in this test for "Cc1ccc(NC(=O)CSc2nc(CSc3ccc(C)cc3)cc(=O)[nH]2)cc1" ?
Ans. True

Qu. Status in this test for "Cc1ccc2cc(/C=N/Nc3ccc(C(=O)O)cc3)c(Cl)nc2c1" ?
Ans. True

Qu. Status in this test for "Cc1ccc(-n2c(SCC(=O)Nc3ccc(S(=O)(=O)Nc4nccs4)cc3)nnc2-c2ccncc2)cc1" ?
Ans. True

Qu. Status in this test for "Cc1ccc(C(=O)O)cc1-c1ccc(/C=C2\SC(=O)N(CC(=O)Nc3ccc4c(c3)OCO4)C2=O)o1" ?
Ans. True

Qu. Status in this test for "Oc1c(Cl)cc(Cl)c(Cl)c1Cc1c(O)c(Cl)cc(Cl)c1Cl" ?
Ans. True

Qu. Status in this test for COc1cc(C2CC(=O)N3CN(Cc4ccccc4)CSC3=C2C#N)ccc1OCc1ccccc1 (stereo not drawn) ?
Ans. False

Qu. Status in this test for CCC(C)Cn1c(O)cc2nn(-c3nc4ccccc4s3)c(=O)c-2c1C (stereo not drawn) ?
Ans. True

Qu. Status in this test for CC1(C(=O)NS(=O)(=O)c2ccc(C#N)cc2)CCN1C(=O)c1ccc(C2CCCCC2)cc1 (stereo not drawn) ?
Ans. True

Qu. Status in this test for "CCc1nnc(NS(=O)(=O)c2ccc(NC(=O)c3cccc(OC(F)(F)C(F)F)c3)cc2)s1" ?
Ans. True

Qu. Status in this test for "COc1cc(NC(=O)c2ccccc2NS(=O)(=O)c2ccc(Cl)s2)cc(OC)c1" ?
Ans. True

Qu. Status in this test for CCn1cc(C(=O)NCC2COc3ccccc3O2)c2cc(OC)c(OC)cc2c1=O (stereo not drawn) ?
Ans. False

Qu. Status in this test for "O=C(O)c1ccc(NC(=O)c2cn(-c3ccccc3)nc2-c2ccc(Cl)cc2)cc1" ?
Ans. True

Qu. Status in this test for "CCn1c(SCC(=O)Nc2ccc(S(=O)(=O)Nc3onc(C)c3C)cc2)nnc1-c1ccccc1" ?
Ans. False

Qu. Status in this test for "Cc1cc(C)c2nc(-c3cccnc3)cc(C(=O)Nc3ccc(S(=O)(=O)Nc4onc(C)c4C)cc3)c2c1" ?
Ans. True

Qu. Status in this test for "Cc1ccc(Cn2c(SCC(=O)N/N=C/c3ccccc3OCC(=O)O)nc3ccccc32)cc1" ?
Ans. True

Qu. Status in this test for "O=C(Nc1cccc(F)c1)c1cc(-c2ccco2)nc2ccccc12" ?
Ans. False

Qu. Status in this test for "Cc1ccc(C(=O)/C=C/Nc2ccc(S(=O)(=O)Nc3onc(C)c3C)cc2)cc1" ?
Ans. True

Qu. Status in this test for "Cc1ccc(-n2c(SCC(=O)Nc3ccc(S(=O)(=O)Nc4nccs4)cc3)nnc2-c2ccccn2)cc1" ?
Ans. True

Qu. Status in this test for "Cc1sc2nc(SCC(=O)c3ccc(O)c(O)c3)n(Cc3ccco3)c(=O)c2c1C" ?
Ans. True

Qu. Status in this test for "Cc1cc2nc(-c3ccco3)c(Cc3cccc(F)c3)n2c(C)c1Br" ?
Ans. False

Qu. Status in this test for "COc1ccc(/C=C/C(=O)c2ccc(NS(=O)(=O)c3ccc(C)cc3)cc2)cc1O" ?
Ans. True

----------
# measurement.description: small molecules binding CAG repeat RNA – biochemical, fluorescence, confirmation (AID 652065);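 further: loss of TO-PRO-1 fluorescence as compound displaces dye from 1x1 AA loop RNA; 0% = DMSO only wells and 100% = 100 µM mitoxantrone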
# setup.conditions: r(CAG) RNA repeat, TO-PRO-1 dye displacement fluorescence; at 3 µM; active compounds read high
The campaign covered roughly 4,300 compounds. About 3,000 (70%) were called active. The set was probably picked from earlier hits. Only a sample is shown.
measured.quantity: inhibition (%)
Note: unit % is implicit; provide only the numeric part.

# count of solved cases: 2
Qu. What does the record list as inhibition for Cc1ccc(NC(=O)CC2S/C(=N/N=C3\CCCc4ccccc43)NC2=O)cc1 (stereo not drawn) ?
Ans. 54.7

Qu. What does the record list as inhibition for "Cc1ccc(N=C2NC(=O)/C(=C/C=C/c3ccco3)S2)cc1C" ?
Ans. 48.9

Please turn your attention to the following entry.
Qu. What does the record list as inhibition for "CC[C@@H](C)[C@H](NC(=O)CCc1c(C)c2cc3c4c(oc3c(C)c2oc1=O)CCCC4)C(=O)O" ?
Ans. 52.4
